Just for reference, patent US8404859B2 is where these values come from.

Target: sLFA-1/ICAM-1 (Homo sapiens, UniProt P05107+P20701, DEL701-769)
Sequence (P20701 26-1090 limits assumed, stated change not applied): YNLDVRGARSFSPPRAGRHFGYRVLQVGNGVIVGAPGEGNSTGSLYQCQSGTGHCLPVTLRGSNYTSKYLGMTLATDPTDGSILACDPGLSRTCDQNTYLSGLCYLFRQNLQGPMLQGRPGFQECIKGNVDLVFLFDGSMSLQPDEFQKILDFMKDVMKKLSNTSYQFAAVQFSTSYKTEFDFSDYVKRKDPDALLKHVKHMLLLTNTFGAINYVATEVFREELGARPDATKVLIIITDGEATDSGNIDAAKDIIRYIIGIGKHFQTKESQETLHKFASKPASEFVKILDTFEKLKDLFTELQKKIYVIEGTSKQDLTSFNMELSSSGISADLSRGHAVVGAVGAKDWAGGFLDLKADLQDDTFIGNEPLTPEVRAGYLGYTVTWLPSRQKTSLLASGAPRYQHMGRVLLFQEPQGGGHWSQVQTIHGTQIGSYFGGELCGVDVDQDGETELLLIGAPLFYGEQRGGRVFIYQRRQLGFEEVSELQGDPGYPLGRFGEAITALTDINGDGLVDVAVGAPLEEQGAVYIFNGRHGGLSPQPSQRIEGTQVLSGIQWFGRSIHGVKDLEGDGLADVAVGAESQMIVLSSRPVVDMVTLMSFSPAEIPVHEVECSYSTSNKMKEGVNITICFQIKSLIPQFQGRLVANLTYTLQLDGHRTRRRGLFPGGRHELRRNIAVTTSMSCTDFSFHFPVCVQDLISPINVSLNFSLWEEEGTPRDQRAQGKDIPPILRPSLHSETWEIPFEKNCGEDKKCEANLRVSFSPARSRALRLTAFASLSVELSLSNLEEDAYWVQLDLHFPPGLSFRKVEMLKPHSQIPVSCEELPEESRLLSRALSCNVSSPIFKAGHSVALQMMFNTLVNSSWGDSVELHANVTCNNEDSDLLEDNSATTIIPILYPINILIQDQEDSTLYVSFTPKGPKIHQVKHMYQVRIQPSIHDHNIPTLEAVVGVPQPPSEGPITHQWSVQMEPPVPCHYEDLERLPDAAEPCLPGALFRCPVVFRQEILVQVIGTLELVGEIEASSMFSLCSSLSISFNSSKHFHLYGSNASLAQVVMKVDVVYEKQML
Sequence (P05107 23-700 limits assumed, stated change not applied): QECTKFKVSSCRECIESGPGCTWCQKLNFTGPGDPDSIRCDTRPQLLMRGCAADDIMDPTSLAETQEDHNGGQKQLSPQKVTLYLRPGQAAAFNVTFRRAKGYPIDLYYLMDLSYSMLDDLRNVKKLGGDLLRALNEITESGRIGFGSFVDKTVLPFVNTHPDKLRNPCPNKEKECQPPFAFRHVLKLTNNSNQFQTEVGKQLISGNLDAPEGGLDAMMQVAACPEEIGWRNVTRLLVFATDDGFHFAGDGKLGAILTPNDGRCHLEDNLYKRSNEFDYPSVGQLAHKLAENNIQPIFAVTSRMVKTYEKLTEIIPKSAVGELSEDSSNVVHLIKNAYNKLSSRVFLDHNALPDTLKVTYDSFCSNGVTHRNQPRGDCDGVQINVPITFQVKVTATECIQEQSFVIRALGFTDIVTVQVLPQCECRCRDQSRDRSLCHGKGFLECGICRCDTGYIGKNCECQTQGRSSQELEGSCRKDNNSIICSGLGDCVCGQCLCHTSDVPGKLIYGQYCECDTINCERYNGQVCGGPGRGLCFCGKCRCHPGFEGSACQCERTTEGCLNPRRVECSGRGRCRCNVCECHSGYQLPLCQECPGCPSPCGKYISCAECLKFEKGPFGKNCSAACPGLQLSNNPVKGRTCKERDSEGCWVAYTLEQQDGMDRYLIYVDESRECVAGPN
Assay: sLFA-1/ICAM-1 ELISA
Details: sLFA-1 coated plates, 5dICAM-Fc binding, read-out: LFA/ICAM (IC50)
Just a reminder that ties go to false (0): only IC50 strictly below 0.04 µM counts as true (1).

compound	answer-label
Cc1cc(C(=O)NCCc2cccc(O)c2)sc1C(=O)N[C@@H](CNC(=O)c1cc(O)cc(O)c1)C(=O)O [Example 49]	true (1)
Cc1cc(C(=O)NCCc2cccc(O)c2)sc1C(=O)N[C@@H](CNC(=O)c1cccs1)C(=O)O [Example 48]	false (0)
Cc1nc(NC(=O)Cc2cccc(O)c2)sc1C(=O)N[C@@H](CNC(=O)c1cc(F)cc(F)c1)C(=O)O [Example 1]	true (1)
Cc1cc(C(=O)NCc2cccc(O)c2)sc1C(=O)N[C@@H](CNC(=O)c1ccc2[nH]cnc2c1)C(=O)O [Example 42]	true (1)

Next item in the queue.
Exam item: Is IC50 strictly under 0.04 µM for the entry Cc1cc(C(=O)NCc2cccc(O)c2)sc1C(=O)N[C@@H](CNC(=O)c1cccs1)C(=O)O [Example 32] ?
Marked response: true (1)
